experiment: Dissolution / kinetic release of atazanavir from nanoporous silica in simulated intestine fluid (SIF); format: physicochemical; details: simulated intestine fluid (SIF), fassgf or other biorelevant, thermodynamic from solid, after 4 hours, higher concentration of NFM-1-ATV particles, read-out: maximum solubility

{"columns": ["structure-as-smiles", "solubility at 4 h / µg/mL"],
 "data": [
  ["COC(=O)N[C@H](C(=O)N[C@@H](Cc1ccccc1)[C@@H](O)CN(Cc1ccc(-c2ccccn2)cc1)NC(=O)[C@@H](NC(=O)OC)C(C)(C)C)C(C)(C)C", 0.254]
]}
